Biological target: LiTryR dimer (Leishmania infantum, UniProt A4HSF7)
Sequence (A4HSF7 1-491): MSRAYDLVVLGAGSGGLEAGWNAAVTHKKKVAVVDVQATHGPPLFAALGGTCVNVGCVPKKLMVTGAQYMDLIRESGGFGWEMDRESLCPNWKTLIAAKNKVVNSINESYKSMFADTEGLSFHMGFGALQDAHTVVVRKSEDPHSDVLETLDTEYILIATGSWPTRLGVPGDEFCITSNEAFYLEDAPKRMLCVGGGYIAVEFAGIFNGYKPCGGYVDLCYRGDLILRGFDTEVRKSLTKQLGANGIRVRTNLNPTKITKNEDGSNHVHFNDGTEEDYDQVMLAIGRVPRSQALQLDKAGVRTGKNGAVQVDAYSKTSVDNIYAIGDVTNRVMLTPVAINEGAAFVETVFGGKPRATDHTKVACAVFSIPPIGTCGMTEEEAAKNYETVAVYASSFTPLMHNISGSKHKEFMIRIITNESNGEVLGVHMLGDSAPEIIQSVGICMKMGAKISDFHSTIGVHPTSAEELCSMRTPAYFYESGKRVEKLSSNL
Assay: biochemical
Settings: 400 nM LiTryR, 16 h at 37 °C; read-out: IC50^dim, LiTryR monomer displacement (dimer quantitation ELISA)
Attribute: IC50
Readout type: IC50 (µM)

NCCCCc1cn(-c2ccc(-c3nc(CCc4ccc(-c5ccccc5)cc4)c(-c4ccccc4)s3)c(OCCN3CCNC3=O)c2)nn1.O=C(O)C(F)(F)F [19d]; 5.7
NCCCCc1cn(-c2ccc(-c3nc(-c4cccc(-c5csc(-c6ccc(-n7cc(CCCCN)nn7)cc6OCCN6CCNC6=O)n5)c4)cs3)c(OCCN3CCNC3=O)c2)nn1.O=C(O)C(F)(F)F.O=C(O)C(F)(F)F; 8

---

pIC50: −log10 of the molar value.
// LiTryR (Leishmania infantum, UniProt A4HSF7) pIC50 records
Readout type: pIC50

NCCCCc1cn(-c2ccc(-c3nc(-c4ccccc4)cs3)c(OCCN3CCNC3=O)c2)nn1.O=C(O)C(F)(F)F [12n]; 4.95
NCCCCc1cn(-c2ccc(-c3nc(-c4ccc(-c5ccccc5)cc4)c(-c4ccccc4)s3)c(OCCN3CCNC3=O)c2)nn1.O=C(O)C(F)(F)F [19b]; 4.74
COc1cc(-n2cc(CCCCN)nn2)ccc1-c1nc(CCc2ccccc2)cs1.O=C(O)C(F)(F)F [12j]; 4.70
NCCCCc1cn(-c2ccc(-c3nc(-c4ccccc4)c(-c4ccccc4)s3)c(OCCN3CCNC3=O)c2)nn1.O=C(O)C(F)(F)F [19a]; 5.37
NCCNCc1nccn1-c1ccc(-c2nc(CCc3ccc(-c4ccccc4)cc3)cs2)c(OCCN2CCNC2=O)c1 [compound 3, reference compound]; 5.07
NCCCCc1cn(-c2ccc(-c3nc(CCc4ccc5c(c4)CCO5)cs3)c(OCCN3CCNC3=O)c2)nn1.O=C(O)C(F)(F)F [12r]; 4.92
NCCCCc1cn(-c2ccc(-c3nc(CCc4ccc(-c5ccccc5)cc4)cs3)c(OCCN3CCNC3=O)c2)nn1.O=C(O)C(F)(F)F [12c]; 4.96
NCCCCc1cn(-c2ccc(-c3nc(CCc4ccc5c(c4)CCCN5)cs3)c(OCCN3CCNC3=O)c2)nn1.O=C(O)C(F)(F)F.O=C(O)C(F)(F)F [12q]; 5.16
NCCCCc1cn(-c2ccc(-c3nc(CCc4ccc(-c5ccccc5)cc4)c(-c4ccccc4)s3)c(OCCN3CCNC3=O)c2)nn1.O=C(O)C(F)(F)F [19d]; 4.70
CC(C)Oc1csc(-c2ccc(-n3cc(CCCCN)nn3)cc2OCCN2CCNC2=O)n1 [12l]; 4.26
NCCCc1cn(-c2ccc(-c3nc(CCc4ccc(-c5ccccc5)cc4)cs3)c(OCCN3CCNC3=O)c2)nn1.O=C(O)C(F)(F)F [12i]; 4.71
CC(C)(C)Cc1csc(-c2ccc(-n3cc(CCCCN)nn3)cc2OCCN2CCNC2=O)n1.O=C(O)C(F)(F)F [12m]; 4.62
NCCCCc1cn(-c2ccc(-c3nc(CCc4ccc5oc6ccccc6c5c4)cs3)c(OCCN3CCNC3=O)c2)nn1.O=C(O)C(F)(F)F [12s]; 5.18

---

Biological target: LiTryR dimer (Leishmania infantum)
Assay: biochemical
Settings: 400 nM LiTryR, 16 h at 37 °C; read-out: IC50^dim, LiTryR monomer displacement (dimer quantitation ELISA)
Description: The stability of the LiTryR dimeric form in the presence of 1,2,3-triazole-phenyl-thiazole-based compounds was evaluated using the novel enzyme-linked immunosorbent assay (ELISA) developed in our laboratory.[25] […] Next, the different solutions were centrifuged at 18 000g for 15 min at room temperature. […] The enzymatic reaction was stopped after 5 min with H2SO4 (100 μL, […]), and the absorbances were measured at 490 nm in an EnSpire Multimode Plate Reader (PerkinElmer, Waltham, MA). […]
pIC50: −log10 of the molar value.
Readout type: pIC50

N#Cc1ccc(-n2cc(CCCCN)nn2)cc1OCCN1CCNC1=O; < 4.12
CCCCc1cn(-c2ccc(-c3nc(CCc4ccc(-c5ccccc5)cc4)cs3)c(OCCN3CCNC3=O)c2)nn1 [12f]; < 4.12
COc1cc(-n2cc(CCCCN)nn2)ccc1-c1nc(CCc2ccccc2)cs1.O=C(O)C(F)(F)F [12j]; < 4.12

Provenance of the data: paper PMC8480782
